Taken from patent US20090227575A1.

target: Human mTOR (Homo sapiens); assay: mTOR kinase assay (DELFIA format, purified enzyme); type: biochemical; set-up: FLAG; details: read-out: TOR Kinase IC50
Observation type: IC50 (nM)

Solved cases (5 shown):
Cn1ccc2c3nc(-c4ccc(NC(=O)NC5CCC5)cc4)nc(N4CCOCC4)c3ccc21	1500
CS(=O)(=O)n1ccc2c3nc(-c4cnc(N)nc4)nc(N4CCOCC4)c3ccc21	63
CN1CCC(S(=O)(=O)n2ccc3c4nc(-c5ccc(NC(=O)Nc6ccncc6)cc5)nc(N5CCOCC5)c4ccc32)CC1	67
COCOc1cncc(-c2nc(N3CCOCC3)c3ccc4c(ccn4C)c3n2)c1	525
Cn1ccc2c3nc(-c4ccc(N)nc4)nc(N4CCOCC4)c3ccc21	630

1. Cn1ccc2c3nc(-c4cccc(C#N)c4)nc(N4CCOCC4)c3ccc21
2. CN(C)CCn1ccc2c3nc(-c4ccc(NC(=O)C5CC5)cc4)nc(N4CCOCC4)c3ccc21
Request: Lower IC50: 1 or 2 ? Which one? Tell me its label.
Response: 1
(1: 2300 nM, 2: 5250 nM)

a. Cn1ccc2c3nc(-c4ccc(O)nc4)nc(N4CCOCC4)c3ccc21
b. CCOC(=O)Nc1ccc(-c2nc(N3CCOCC3)c3ccc4c(ccn4C)c3n2)cc1
c. Cn1ccc2c3nc(-c4cccc5[nH]ccc45)nc(N4CCOCC4)c3ccc21
d. CC(C)CC(O)c1cccc(-c2nc(N3CCOCC3)c3ccc4c(ccn4C)c3n2)c1 (stereo not drawn)
e. CC(O)c1cccc(-c2nc(N3CCOCC3)c3ccc4c(ccn4C)c3n2)c1 (stereo not drawn)
Request: Order by IC50, ascending. Please respond with the labels ordered as the question requires.
Response: b, c, e, d, a
(b: 390 nM, c: 1130 nM, e: 1650 nM, d: 2700 nM, a: 7550 nM)

a. CC(C)c1ccc(NC(=O)Nc2ccc(-c3nc(N4CCOCC4)c4ccc5c(ccn5C)c4n3)cc2)cc1
b. CCNC(=O)Nc1ccc(-c2nc(N3CCOCC3)c3ccc4c(ccn4C)c3n2)cc1
Request: Input pair: a , b . Output: entry with lower IC50. Answer by stating the label of the chosen item.
Response: b
(b: 35 nM, a: 355 nM)

====

molecular target: PI3K-alpha (Homo sapiens, UniProt P42336)
Sequence (P42336 whole entry, species assumed): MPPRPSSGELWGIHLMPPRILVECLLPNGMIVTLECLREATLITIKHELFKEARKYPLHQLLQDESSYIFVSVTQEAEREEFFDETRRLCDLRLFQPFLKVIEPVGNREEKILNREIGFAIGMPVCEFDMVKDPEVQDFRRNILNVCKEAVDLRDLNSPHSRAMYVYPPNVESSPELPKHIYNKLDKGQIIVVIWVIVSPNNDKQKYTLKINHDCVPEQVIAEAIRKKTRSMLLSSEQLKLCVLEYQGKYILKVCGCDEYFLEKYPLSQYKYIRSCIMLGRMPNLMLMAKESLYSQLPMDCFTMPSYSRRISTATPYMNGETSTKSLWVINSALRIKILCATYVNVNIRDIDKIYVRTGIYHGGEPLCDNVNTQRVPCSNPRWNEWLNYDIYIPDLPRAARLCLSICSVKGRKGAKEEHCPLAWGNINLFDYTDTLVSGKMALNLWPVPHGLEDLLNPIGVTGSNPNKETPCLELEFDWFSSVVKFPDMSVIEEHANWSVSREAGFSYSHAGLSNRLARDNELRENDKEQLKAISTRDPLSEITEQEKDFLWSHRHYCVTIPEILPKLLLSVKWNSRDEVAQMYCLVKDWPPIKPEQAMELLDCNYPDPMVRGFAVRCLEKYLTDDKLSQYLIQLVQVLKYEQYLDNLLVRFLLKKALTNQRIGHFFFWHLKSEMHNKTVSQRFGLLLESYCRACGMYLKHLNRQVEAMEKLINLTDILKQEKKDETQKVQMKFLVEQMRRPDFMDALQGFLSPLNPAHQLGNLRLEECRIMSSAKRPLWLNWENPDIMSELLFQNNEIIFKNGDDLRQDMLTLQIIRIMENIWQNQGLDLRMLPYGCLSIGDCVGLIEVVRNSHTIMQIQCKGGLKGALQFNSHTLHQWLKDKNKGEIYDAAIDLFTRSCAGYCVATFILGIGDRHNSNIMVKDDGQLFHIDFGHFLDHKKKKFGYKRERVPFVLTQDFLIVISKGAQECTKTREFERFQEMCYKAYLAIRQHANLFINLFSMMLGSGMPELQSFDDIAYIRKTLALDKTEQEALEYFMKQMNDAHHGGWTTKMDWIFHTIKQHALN
Sequence (P27986 whole entry partner, species assumed): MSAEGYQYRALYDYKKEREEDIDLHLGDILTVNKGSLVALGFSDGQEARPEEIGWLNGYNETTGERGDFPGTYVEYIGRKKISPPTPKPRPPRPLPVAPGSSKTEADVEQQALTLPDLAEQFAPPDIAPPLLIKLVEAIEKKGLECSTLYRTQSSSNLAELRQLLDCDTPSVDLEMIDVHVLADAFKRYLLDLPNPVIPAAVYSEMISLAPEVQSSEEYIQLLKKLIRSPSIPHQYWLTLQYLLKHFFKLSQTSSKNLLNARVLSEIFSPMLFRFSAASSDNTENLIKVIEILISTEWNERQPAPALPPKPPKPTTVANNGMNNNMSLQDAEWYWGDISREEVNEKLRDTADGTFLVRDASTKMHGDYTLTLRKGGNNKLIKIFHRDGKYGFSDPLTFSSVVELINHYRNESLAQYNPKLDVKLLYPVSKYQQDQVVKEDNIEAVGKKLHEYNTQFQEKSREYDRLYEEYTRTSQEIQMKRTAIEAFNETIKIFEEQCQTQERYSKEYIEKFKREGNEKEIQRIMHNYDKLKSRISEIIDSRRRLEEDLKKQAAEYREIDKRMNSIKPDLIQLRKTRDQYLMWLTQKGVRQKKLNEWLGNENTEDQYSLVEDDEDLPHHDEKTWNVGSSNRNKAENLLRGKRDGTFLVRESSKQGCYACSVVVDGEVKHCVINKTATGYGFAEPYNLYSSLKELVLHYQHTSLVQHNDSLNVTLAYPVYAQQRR
Observation type: IC50 (µM)

Take a look at these entries with their results.
CN(C)CCn1ccc2c3nc(-c4ccc(NC(=O)Nc5ccncc5)cc4)nc(N4CCOCC4)c3ccc21	0.222
Cn1ccc2c3nc(-c4ccc(NC(=O)c5ccc(F)cc5)cc4)nc(N4CCOCC4)c3ccc21	12
CS(=O)(=O)n1ccc2c3nc(-c4cncc(O)c4)nc(N4CCOCC4)c3ccc21	0.065
Cn1ccc2c3nc(-c4ccc(NS(=O)(=O)c5ccccc5)cc4)nc(N4CCOCC4)c3ccc21	8.4
Cn1ccc2c3nc(-c4ccc(NC(=O)Nc5ccncc5)cc4)nc(N4CCOCC4)c3ccc21	0.101

P. CN(C)CCn1ccc2c3nc(-c4cccc(OCc5ccccc5)c4)nc(N4CCOCC4)c3ccc21
Q. Cn1ccc2c3nc(-c4cccc(S(=O)(=O)NC5CC5)c4)nc(N4CCOCC4)c3ccc21
Request: Looking only at measured IC50, which entry is lower, P or Q ? Refer to your chosen entry by its label in the reply.
Response: P
(P: 4.03 µM, Q: 6.97 µM)

a. Cn1ccc2c3nc(-c4ccc(NC(=O)c5ccncc5)cc4)nc(N4CCOCC4)c3ccc21
b. Cn1ccc2c3nc(-c4ccc(NS(C)(=O)=O)cc4)nc(N4CCOCC4)c3ccc21
c. O=S(=O)(C1CCNCC1)n1ccc2c3nc(-c4cccc(O)c4)nc(N4CCOCC4)c3ccc21
d. CNC(=O)Nc1ccc(-c2nc(N3CCOCC3)c3ccc4c(ccn4C)c3n2)cc1
Request: Sort (4 molecules) by IC50: min first. Arrange the labels as the request states and list them.
Response: c, d, a, b

A. Cn1ccc2c3nc(-c4ccc(NC(=O)Nc5cccc(Cl)c5)cc4)nc(N4CCOCC4)c3ccc21
B. Cn1ccc2c3nc(-c4cccc(O)c4)nc(N4CCOCC4)c3ccc21
Request: Param metric = IC50; output whichever of A , B has the minimum value. State your choice using its label.
Response: A
(A: 0.062 µM, B: 0.174 µM)

I. Cn1ccc2c3nc(-c4ccc(NC(=O)Nc5ccccn5)cc4)nc(N4CCOCC4)c3ccc21
II. OCc1cccc(-c2nc(N3CCOCC3)c3ccc4[nH]ccc4c3n2)c1
III. C=CC(O)c1cccc(-c2nc(N3CCOCC3)c3ccc4c(ccn4C)c3n2)c1 (stereo not shown)
Request: I would appreciate it if you could sort these 3 molecules by IC50, starting from the smallest number. List the labels, following the order given in the request.
Response: II, I, III
(II: 0.514 µM, I: 2.7 µM, III: 5.42 µM)

====

target: Human mTOR (Homo sapiens, UniProt P42345); assay: mTOR kinase assay (DELFIA format, purified enzyme); assay type: biochemical; design: FLAG; settings: read-out: TOR Kinase IC50
pIC50: −log10 of the molar value.
Observation type: pIC50

CCC(=O)Nc1cccc(-c2nc(N3CCOCC3)c3ccc4c(ccn4C)c3n2)c1 [Example 129]	5.82

I. COCOc1cncc(-c2nc(N3CCOCC3)c3ccc4c(ccn4S(C)(=O)=O)c3n2)c1 [Example 75]
II. CCCOC(=O)Nc1ccc(-c2nc(N3CCOCC3)c3ccc4c(ccn4S(C)(=O)=O)c3n2)cc1 [Example 109]
III. O=S(=O)(c1ccccc1)n1ccc2c3nc(-c4cccc5[nH]ncc45)nc(N4CCOCC4)c3ccc21 [Example 72]
Request: List from greatest to least pIC50. Put the labels in the requested order and write them down.
Response: II, III, I
(II: 5.69, III: 5.49, I: 4.78)

====

biological target: Human mTOR (Homo sapiens); test: mTOR kinase assay (DELFIA format, purified enzyme); type: biochemical; design: FLAG; details: read-out: TOR Kinase IC50
Observation type: IC50 (nM)

CN(C)CCn1ccc2c3nc(-c4ccc(NC(=O)Nc5ccccc5)cc4)nc(N4CCOCC4)c3ccc21	50

I. Cc1noc(C)c1NC(=O)Nc1ccc(-c2nc(N3CCOCC3)c3ccc4c(ccn4C)c3n2)cc1
II. CNC(=O)Nc1ccc(-c2nc(N3CCOCC3)c3ccc4c(ccn4CCN(C)C)c3n2)cc1
III. Cn1ccc2c3nc(-c4ccc(NC(=O)NCCCn5ccnc5)cc4)nc(N4CCOCC4)c3ccc21
Request: Arrange by IC50, high to low. Write the labels in rank order as requested.
Response: I, III, II
(I: 1270 nM, III: 190 nM, II: 67 nM)

====

target: Human mTOR (Homo sapiens, UniProt P42345); experiment: mTOR kinase assay (DELFIA format, purified enzyme); type: biochemical; set-up: FLAG
Observation type: pIC50
The scale used: pIC50 is minus the common logarithm of the concentration in molar units.

Request: Fill blank: measured pIC50 of the compound `CC(=O)c1cccc(NC(=O)Nc2ccc(-c3nc(N4CCOCC4)c4ccc5c(ccn5C)c4n3)cc2)c1` is ____.
Response: 5.26

====

target: PI3K-alpha (Homo sapiens); experiment: PI3K-alpha fluorescence polarization assay; assay type: biochemical; conditions: read-out: PI3 Kinase α IC50
pIC50: −log10 of the molar value.
Observation type: pIC50

The examples below pair each entry with its known result.
CS(=O)(=O)n1ccc2c3nc(-c4cccc(O)c4)nc(N4CCOCC4)c3ccc21	7.20
Cn1ccc2c3nc(-c4cccc(C(O)c5ccccc5)c4)nc(N4CCOCC4)c3ccc21 (centres unmarked)	5.53
CC(=O)Nc1ccc(-c2nc(N3CCOCC3)c3ccc4c(ccn4C)c3n2)cc1	5.51
Cn1ccc2c3nc(-c4ccc(N)nc4)nc(N4CCOCC4)c3ccc21	6.21
CCOC(=O)Nc1ccc(-c2nc(N3CCOCC3)c3ccc4c(ccn4C)c3n2)cc1	5.48

A. CC(C)(C)OC(=O)Cn1ccc2c3nc(-c4ccc(N)nc4)nc(N4CCOCC4)c3ccc21
B. c1cc(-c2nc(N3CCOCC3)c3ccc4[nH]ccc4c3n2)c2cn[nH]c2c1
C. CS(=O)(=O)n1ccc2c3nc(-c4cnc(N)nc4)nc(N4CCOCC4)c3ccc21
D. CN(C)CCCNC(=O)Nc1ccc(-c2nc(N3CCOCC3)c3ccc4c(ccn4C)c3n2)cc1
Request: Please give the order of these compounds when sorted by pIC50, largest value leading. Write the labels, ordered according to the request.
Response: C, A, D, B

====

molecular target: PI3K-gamma (Homo sapiens)
Sequence (P48736 whole entry, species assumed): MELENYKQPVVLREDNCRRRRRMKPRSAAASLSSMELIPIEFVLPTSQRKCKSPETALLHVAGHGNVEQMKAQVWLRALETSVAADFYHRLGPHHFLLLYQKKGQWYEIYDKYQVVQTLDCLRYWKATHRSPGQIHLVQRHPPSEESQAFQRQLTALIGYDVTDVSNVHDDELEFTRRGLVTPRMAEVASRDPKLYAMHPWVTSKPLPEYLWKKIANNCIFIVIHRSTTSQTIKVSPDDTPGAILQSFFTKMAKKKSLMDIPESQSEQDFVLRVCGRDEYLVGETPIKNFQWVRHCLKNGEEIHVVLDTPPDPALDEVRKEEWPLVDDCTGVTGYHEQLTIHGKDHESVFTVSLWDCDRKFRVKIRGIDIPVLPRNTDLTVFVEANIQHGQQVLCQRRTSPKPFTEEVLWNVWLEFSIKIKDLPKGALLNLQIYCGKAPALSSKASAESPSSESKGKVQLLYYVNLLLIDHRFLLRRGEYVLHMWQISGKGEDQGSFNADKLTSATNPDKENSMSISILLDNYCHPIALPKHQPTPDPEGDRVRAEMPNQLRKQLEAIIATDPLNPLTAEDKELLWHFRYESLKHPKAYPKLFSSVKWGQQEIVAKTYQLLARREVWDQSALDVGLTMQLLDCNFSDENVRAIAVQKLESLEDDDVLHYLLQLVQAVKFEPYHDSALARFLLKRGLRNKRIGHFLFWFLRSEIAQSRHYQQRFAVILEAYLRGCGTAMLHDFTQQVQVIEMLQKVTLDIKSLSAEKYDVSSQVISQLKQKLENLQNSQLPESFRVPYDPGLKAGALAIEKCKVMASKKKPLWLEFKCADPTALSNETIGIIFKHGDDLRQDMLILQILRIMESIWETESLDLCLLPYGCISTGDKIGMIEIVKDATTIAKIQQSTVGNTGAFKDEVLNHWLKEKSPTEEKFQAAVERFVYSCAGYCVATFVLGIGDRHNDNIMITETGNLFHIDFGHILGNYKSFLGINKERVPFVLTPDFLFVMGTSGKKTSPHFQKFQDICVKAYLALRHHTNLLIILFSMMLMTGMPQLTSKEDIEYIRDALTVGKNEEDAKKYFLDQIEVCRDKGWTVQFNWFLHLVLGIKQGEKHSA
Observation type: IC50 (µM)

Example cases with answers are listed next.
CN1CCC(S(=O)(=O)n2ccc3c4nc(-c5ccc(NC(=O)Nc6ccncc6)cc5)nc(N5CCOCC5)c4ccc32)CC1 [Example 63]	0.491
CC(C)N1CCC(S(=O)(=O)n2ccc3c4nc(-c5ccc(NC(=O)Nc6ccncc6)cc5)nc(N5CCOCC5)c4ccc32)CC1 [Example 65]	0.3
CN(C)CCn1ccc2c3nc(-c4cccc(CO)c4)nc(N4CCOCC4)c3ccc21 [Example 30]	4.95
Cn1ccc2c3nc(-c4ccc(NC(=O)NCc5ccccn5)cc4)nc(N4CCOCC4)c3ccc21 [Example 15]	3.31
Cn1ccc2c3nc(-c4ccc(NS(=O)(=O)c5ccccc5)cc4)nc(N4CCOCC4)c3ccc21 [Example 22]	6.16
C=CCC(O)c1cccc(-c2nc(N3CCOCC3)c3ccc4c(ccn4C)c3n2)c1 (stereo not shown) [Example 27]	6.66
CCOC(=O)Nc1ccc(-c2nc(N3CCOCC3)c3ccc4c(ccn4C)c3n2)cc1 [Example 20]	2.09
CN(C)CCn1ccc2c3nc(-c4ccc(NC(=O)Nc5ccncc5)cc4)nc(N4CCOCC4)c3ccc21 [Example 33]	0.862

I. CN(C)CCNC(=O)Nc1ccc(-c2nc(N3CCOCC3)c3ccc4c(ccn4C)c3n2)cc1 [Example 4]
II. Cn1ccc2c3nc(-c4ccc(NC(=O)c5ccc(F)cc5)cc4)nc(N4CCOCC4)c3ccc21 [Example 19]
III. Cn1ccc2c3nc(-c4ccc(NC(=O)Nc5ccc(C(F)(F)F)cc5)cc4)nc(N4CCOCC4)c3ccc21 [Example 14]
Request: # ascending order, key=IC50 Could you list the labels in the order requested?
Response: III, I, II
(III: 0.634 µM, I: 2.83 µM, II: 6.17 µM)
